assayedTarget: CYP3A4 (Homo sapiens (Human))
Sequence (P08684 whole entry): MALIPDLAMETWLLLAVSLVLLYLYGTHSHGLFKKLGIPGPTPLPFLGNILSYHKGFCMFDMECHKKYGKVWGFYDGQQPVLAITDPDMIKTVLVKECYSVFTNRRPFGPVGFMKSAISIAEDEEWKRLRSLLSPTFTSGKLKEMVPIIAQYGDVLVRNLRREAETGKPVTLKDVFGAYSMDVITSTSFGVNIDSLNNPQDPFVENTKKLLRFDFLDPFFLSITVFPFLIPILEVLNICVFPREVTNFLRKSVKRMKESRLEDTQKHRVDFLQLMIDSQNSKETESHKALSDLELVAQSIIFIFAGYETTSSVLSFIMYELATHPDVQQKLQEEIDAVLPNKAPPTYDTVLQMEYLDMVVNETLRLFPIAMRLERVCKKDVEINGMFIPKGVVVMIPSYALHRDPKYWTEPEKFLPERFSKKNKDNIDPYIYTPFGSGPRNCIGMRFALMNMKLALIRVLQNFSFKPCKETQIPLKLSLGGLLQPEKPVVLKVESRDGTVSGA
testName: CYP Inhibition Assay, CYP3A4
Type: in vitro ADME
particulars: human liver microsomes, 30 min pre-incubation with NADPH; read-out: CYP 3A4 IC50 pre
pIC50: −log10 of the molar value.
experimentalReadout: pIC50

# annotated cases, reported pIC50 shown
1. CCOc1nc(N2C[C@H]3C(=O)N(C)C(N)=N[C@@]3(c3ccccc3)C2)nc(C)c1F (racemic) [4 racemic] :: < 4.52
2. CCc1nc(N2C[C@H]3C(=O)N(C)C(=N)N[C@@]3(c3ccc(F)cc3F)C2)nc(OC)c1F :: < 4.70
3. Cc1nc(N2C[C@H]3C(=O)N(C)C(N)=N[C@@]3(c3ccccc3)C2)nc(C)c1F (racemic) [23 racemic] :: < 4.52
4. COc1nc(N2C[C@H]3C(=O)N(C)C(=N)N[C@@]3(c3ccc(F)cc3F)C2)nc(C2CC2)c1F :: < 4.70
5. Cc1nc(N2C[C@H]3C(=O)N(C)C(N)=N[C@@]3(c3ccccc3)C2)nc(C2CC2)c1F (racemic) [25 racemic] :: < 4.70

Request: Quick check: pIC50 of `Cc1nc(N2C[C@H]3C(=O)N(C)C(=N)N[C@@]3(c3cc(F)ccc3F)C2)nc(C2CC2)c1F` ?
Response: < 4.70

Request: Quick check: pIC50 of `COc1nc(N2C[C@H]3C(=O)N(C)C(=N)N[C@@]3(c3cc(F)ccc3Cl)C2)nc(C)c1F` ?
Response: < 4.70

Request: Quick check: pIC50 of `CCc1nc(N2C[C@H]3C(=O)N(C)C(=N)N[C@@]3(c3cc(F)ccc3F)C2)nc(OC)c1F` ?
Response: < 4.70

----------
assayedTarget: BACE1 (Aβ40 in HEK293-APPswe/lon cells) (Homo sapiens (Human), UniProt P56817)
Sequence (P56817 46-501): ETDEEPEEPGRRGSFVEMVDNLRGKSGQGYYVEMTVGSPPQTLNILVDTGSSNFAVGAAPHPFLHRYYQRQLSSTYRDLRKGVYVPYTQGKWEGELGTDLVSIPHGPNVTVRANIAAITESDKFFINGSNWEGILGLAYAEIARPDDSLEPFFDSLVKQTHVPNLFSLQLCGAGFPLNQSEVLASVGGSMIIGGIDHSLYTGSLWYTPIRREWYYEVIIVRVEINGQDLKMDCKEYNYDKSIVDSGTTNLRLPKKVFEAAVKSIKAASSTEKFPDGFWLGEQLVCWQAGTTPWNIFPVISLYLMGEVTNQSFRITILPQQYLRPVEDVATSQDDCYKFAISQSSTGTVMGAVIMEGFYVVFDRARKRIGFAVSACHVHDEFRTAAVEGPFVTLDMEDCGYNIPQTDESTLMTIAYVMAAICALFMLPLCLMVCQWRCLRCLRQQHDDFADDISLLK
testName: BACE Inhibitor Whole Cell IC50 Determination Using HEK293-APPswe/lon Cells (Aβ40)
particulars: 4 hours
pIC50: −log10 of the molar value.
experimentalReadout: pIC50

# annotated cases, reported pIC50 shown
1. COc1nc(N2C[C@H]3C(=O)N(C)C(=N)N[C@@]3(c3ccc(F)cc3F)C2)nc(C(F)(F)F)c1F :: 7.17
2. COc1nc(N2C[C@H]3C(=O)N(C)C(=N)N[C@@]3(c3ccc(F)cc3Cl)C2)nc(C)c1F :: 8.02
3. COc1nc(N2C[C@H]3C(=O)N(C)C(=N)N[C@@]3(c3ccc(F)cc3F)C2)nc(OC)c1F :: 8.12
4. Cc1nc(N2C[C@H]3C(=O)N(C)C(=N)N[C@@]3(c3cccc(C#N)c3)C2)nc(C2CC2)c1F :: 6.67

a = Cc1nc(N2C[C@H]3C(=O)N(C)C(N)=N[C@@]3(c3ccccc3)C2)nc(C2CC2)c1Cl (racemic) [7 racemic]
b = COc1nc(N2C[C@H]3C(=O)N(C)C(=N)N[C@@]3(c3ccc(F)cc3)C2)nc(C2CC2)c1F
Request: Please tell me which of the two, a or b , has the higher reported pIC50 value. Write the label of whichever entry you select.
Response: b

a = COc1nc(N2C[C@H]3C(=O)N(C)C(=N)N[C@@]3(c3ccccc3F)C2)nc(C)c1Cl
b = COc1nc(N2C[C@H]3C(=O)N(C)C(=N)N[C@@]3(c3cc(F)ccc3F)C2)nc(C2CC2)c1Cl
Request: Please tell me which of the two, a or b , has the higher reported pIC50 value. Write the label of whichever entry you select.
Response: a
(a: 7.49, b: 7.05)

----------
assayedTarget: hERG (Homo sapiens (Human), UniProt Q12809)
Sequence (Q12809 whole entry): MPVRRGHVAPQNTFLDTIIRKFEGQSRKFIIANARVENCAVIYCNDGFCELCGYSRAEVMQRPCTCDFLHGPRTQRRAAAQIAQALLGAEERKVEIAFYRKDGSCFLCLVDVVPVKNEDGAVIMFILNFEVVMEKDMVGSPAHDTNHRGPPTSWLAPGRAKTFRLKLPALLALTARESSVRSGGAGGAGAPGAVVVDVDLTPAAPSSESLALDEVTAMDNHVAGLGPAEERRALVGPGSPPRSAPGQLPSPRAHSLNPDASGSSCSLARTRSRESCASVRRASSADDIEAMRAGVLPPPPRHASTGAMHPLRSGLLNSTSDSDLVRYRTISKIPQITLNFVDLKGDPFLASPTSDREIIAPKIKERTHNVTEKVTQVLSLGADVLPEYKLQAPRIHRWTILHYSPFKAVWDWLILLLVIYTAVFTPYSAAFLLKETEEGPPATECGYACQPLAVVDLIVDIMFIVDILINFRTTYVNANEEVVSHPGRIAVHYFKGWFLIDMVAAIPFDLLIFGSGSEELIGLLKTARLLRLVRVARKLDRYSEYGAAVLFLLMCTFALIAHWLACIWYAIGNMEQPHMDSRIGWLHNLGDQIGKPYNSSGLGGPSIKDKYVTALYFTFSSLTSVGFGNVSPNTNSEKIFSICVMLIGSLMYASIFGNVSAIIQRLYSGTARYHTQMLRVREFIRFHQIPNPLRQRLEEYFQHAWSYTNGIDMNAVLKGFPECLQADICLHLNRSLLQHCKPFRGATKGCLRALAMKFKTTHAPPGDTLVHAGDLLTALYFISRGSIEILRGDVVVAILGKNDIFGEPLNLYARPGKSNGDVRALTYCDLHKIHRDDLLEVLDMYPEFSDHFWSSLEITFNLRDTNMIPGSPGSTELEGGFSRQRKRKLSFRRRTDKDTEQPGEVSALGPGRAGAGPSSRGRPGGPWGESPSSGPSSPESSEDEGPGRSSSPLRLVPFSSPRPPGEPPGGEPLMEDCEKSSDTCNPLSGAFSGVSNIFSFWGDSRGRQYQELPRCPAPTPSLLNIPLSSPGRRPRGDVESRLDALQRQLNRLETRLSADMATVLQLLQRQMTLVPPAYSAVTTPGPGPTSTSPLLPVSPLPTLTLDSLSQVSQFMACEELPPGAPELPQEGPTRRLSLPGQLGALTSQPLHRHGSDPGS
testName: hERG screening, Rubidium Efflux (hERG-CHO cells)
Format: cell-based
particulars: CHO cells expressing hERG, pH 7.4, 1.5 uG/mL, read-out: HERG Rb efflux % Inhib 1.5 uG/mL
Recorded measurements of inhibition at 30 min, 1.5 uG/mL, one per entry
Value expressed in %; do not type the unit.

1) Cc1nc(N2C[C@H]3C(=O)N(C)C(=N)N[C@@]3(c3ccc(F)cc3)C2)nc(C)c1F :: 13

Please look at the following compound next.
Request: API: value(readout= inhibition at 30 min, 1.5 uG/mL, system= hERG (Homo sapiens (Human), UniProt Q12809), query= `COc1nc(N2C[C@H]3C(=O)N(C)C(N)=N[C@@]3(c3c(F)cc(F)c(F)c3F)C2)nc(C)c1F` )
Response: -4

----------
assayedTarget: human liver Cathepsin D (Homo sapiens (Human))
Sequence (P07339 65-412): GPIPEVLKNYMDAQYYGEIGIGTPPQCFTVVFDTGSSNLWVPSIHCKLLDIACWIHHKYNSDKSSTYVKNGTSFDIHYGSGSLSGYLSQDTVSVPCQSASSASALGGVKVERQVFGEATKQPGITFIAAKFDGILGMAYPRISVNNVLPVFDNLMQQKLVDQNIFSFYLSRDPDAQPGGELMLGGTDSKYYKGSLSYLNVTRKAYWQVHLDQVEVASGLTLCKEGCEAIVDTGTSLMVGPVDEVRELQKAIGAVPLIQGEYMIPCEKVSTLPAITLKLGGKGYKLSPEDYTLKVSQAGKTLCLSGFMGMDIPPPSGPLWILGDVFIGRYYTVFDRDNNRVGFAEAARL
Sequence (P07339 169-412): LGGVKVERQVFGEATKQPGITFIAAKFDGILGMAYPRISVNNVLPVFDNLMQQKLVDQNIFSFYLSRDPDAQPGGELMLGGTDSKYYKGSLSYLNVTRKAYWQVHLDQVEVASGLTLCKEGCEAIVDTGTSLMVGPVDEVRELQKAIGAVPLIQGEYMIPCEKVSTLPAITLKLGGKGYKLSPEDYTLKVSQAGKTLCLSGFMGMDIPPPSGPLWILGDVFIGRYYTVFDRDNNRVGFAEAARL
testName: Human Cathepsin D FRET Assay
Format: biochemical
particulars: selectivity with respect to Cathepsin D vs BACE1
experimentalReadout: CathD Selectivity

I = COc1nc(N2C[C@H]3C(=O)N(C)C(=N)N[C@@]3(c3cc(F)ccc3F)C2)nc(C2CC2)c1F
II = COc1nc(N2C[C@H]3C(=O)N(C)C(=N)N[C@@]3(c3cc(F)ccc3Cl)C2)nc(C)c1F
Request: Please tell me which of the two, I or II , has the higher reported CathD Selectivity value. Write the label of whichever entry you select.
Response: II

----------
Recorded measurements of pIC50, one per entry
assayedTarget: UniProt:P08684
testName: CYP Inhibition Assay, CYP3A4;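 also: CYP probe substrate held near its Km, inhibition judged from metabolite formation quantified by LC-MS/MS against a standard curve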
Format: in vitro ADME
particulars: human liver microsomes, co-incubation; read-out: CYP 3A4 IC50 co
pIC50: −log10 of the molar value.

1. COc1nc(N2C[C@H]3C(=O)N(C)C(=N)N[C@@]3(c3cc(F)ccc3F)C2)nc(C2CC2)c1F :: < 4.70
2. COc1nc(N2C[C@H]3C(=O)N(C)C(N)=N[C@@]3(c3c(F)ccc(F)c3F)C2)nc(C)c1F :: < 4.70
3. COc1nc(N2C[C@H]3C(=O)N(C)C(=N)N[C@@]3(c3ccc(F)cc3)C2)nc(C2CC2)c1F :: < 4.70
4. COc1nc(N2C[C@H]3C(=O)N(C)C(=N)N[C@@]3(c3ccc(F)c(Cl)c3F)C2)nc(C)c1F (racemic) [39 racemic] :: < 4.70
5. COc1nc(N2C[C@H]3C(=O)N(C)C(=N)N[C@@]3(c3cc(F)ccc3F)C2)nc(OC)c1F :: < 4.52

Request: Quick check: pIC50 of `CCc1nc(N2C[C@H]3C(=O)N(C)C(=N)N[C@@]3(c3cc(F)c(F)cc3F)C2)nc(OC)c1F` ?
Response: < 4.70

----------
assayedTarget: hERG (Homo sapiens (Human), UniProt Q12809)
testName: hERG screening, IonWorks Quattro (hERG L929 cells)
Assay type: cell-based
particulars: L929 cells expressing hERG, 10 uM, read-out: HERG Ionworks % Inhib 10 uM
experimentalReadout: inhibition at 5 min, 10 uM (%)
Value expressed in %; do not type the unit.

Request: API: value(readout= inhibition at 5 min, 10 uM, system= hERG (Homo sapiens (Human), UniProt Q12809), query= COc1nc(N2C[C@H]3C(=O)N(C)C(N)=N[C@@]3(c3c(F)ccc(F)c3F)C2)nc(C)c1F [Example 40] )
Response: 81

Request: API: value(readout= inhibition at 5 min, 10 uM, system= hERG (Homo sapiens (Human), UniProt Q12809), query= COc1nc(N2C[C@H]3C(=O)N(C)C(=N)N[C@@]3(c3ccc(F)cc3F)C2)nc(C(F)(F)F)c1F [Example 41] )
Response: 77

Request: API: value(readout= inhibition at 5 min, 10 uM, system= hERG (Homo sapiens (Human), UniProt Q12809), query= COc1nc(N2C[C@H]3C(=O)N(C)C(=N)N[C@@]3(c3ccc(F)cc3)C2)nc(C2CC2)c1F [Example 21] )
Response: 73

Request: API: value(readout= inhibition at 5 min, 10 uM, system= hERG (Homo sapiens (Human), UniProt Q12809), query= COc1nc(N2C[C@H]3C(=O)N(C)C(=N)N[C@@]3(c3ccc(F)c(Cl)c3F)C2)nc(C)c1F (racemic) [39 racemic] )
Response: 61

Request: API: value(readout= inhibition at 5 min, 10 uM, system= hERG (Homo sapiens (Human), UniProt Q12809), query= COc1nc(N2C[C@H]3C(=O)N(C)C(=N)N[C@@]3(c3ccc(F)cc3F)C2)nc(CO)c1F [Example 43] )
Response: 27

Request: API: value(readout= inhibition at 5 min, 10 uM, system= hERG (Homo sapiens (Human), UniProt Q12809), query= COc1nc(N2C[C@H]3C(=O)N(C)C(=N)N[C@@]3(c3ccc(F)cc3F)C2)nc(OC)c1F [Example 10] )
Response: 74

Request: API: value(readout= inhibition at 5 min, 10 uM, system= hERG (Homo sapiens (Human), UniProt Q12809), query= Cc1nc(N2C[C@H]3C(=O)N(C)C(=N)N[C@@]3(c3cccc(C#N)c3)C2)nc(C2CC2)c1F [Example 14] )
Response: 59
